Where do these numbers come from? They come from patent US20190153059A1.

Quick list: CLR/RAMP2 IC50 per entry.
- SYSTEM UNDER TEST: CLR/RAMP2 receptor (UniProt Q16602 23-461; O60895 43-175, limits assumed)
- Sequence (Q16602 23-461 limits assumed, chain 1 of 2): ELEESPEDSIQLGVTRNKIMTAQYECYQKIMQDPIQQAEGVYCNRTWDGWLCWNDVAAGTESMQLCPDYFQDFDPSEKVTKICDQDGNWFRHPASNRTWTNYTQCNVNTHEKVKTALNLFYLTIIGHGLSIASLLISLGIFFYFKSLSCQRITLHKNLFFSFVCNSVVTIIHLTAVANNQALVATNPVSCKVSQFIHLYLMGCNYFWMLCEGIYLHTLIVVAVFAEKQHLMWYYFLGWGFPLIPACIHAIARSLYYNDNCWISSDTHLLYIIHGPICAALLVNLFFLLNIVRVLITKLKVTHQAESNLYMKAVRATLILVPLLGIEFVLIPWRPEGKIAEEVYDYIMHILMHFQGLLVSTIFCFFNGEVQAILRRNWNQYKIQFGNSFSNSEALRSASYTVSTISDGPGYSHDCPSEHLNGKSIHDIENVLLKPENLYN
- Sequence (O60895 43-175 limits assumed, chain 2 of 2): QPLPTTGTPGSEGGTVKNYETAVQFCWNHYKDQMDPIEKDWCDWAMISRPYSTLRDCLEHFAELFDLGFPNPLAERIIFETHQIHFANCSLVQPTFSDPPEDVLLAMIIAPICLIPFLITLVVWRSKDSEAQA
- ASSAY PROTOCOL: cell-based or functional assay
* marks the point of attachment. Palmitoyl = CCCCCCCCCCCCCCCC(=O)*
Lab book: enter the figure in nM, no units written.

MiniPEG-KVQKLAHQIYSAPVDPSSPHSY-NH2 (also: K(Pal), Lys not given here) [SEQ ID NO: 114] :: 146
Palmitoyl-KVQKLAHQIYSAPVDPSSPHSY-NH2 [SEQ ID NO: 122] :: 61
Palmitoyl-KVQKLAHQIYQFTDKDVAPRSKISPQGY-NH2 [SEQ ID NO: 119] :: 0.6

API: the following record is the query input.
Returns the measured CLR/RAMP2 IC50 for the input binder. Input: MiniPEG-KVQKLAHQIYQFTDKDSAPVDPSSPHSY-NH2 (also: K(Pal), Lys not given here) [SEQ ID NO: 112] 5.3
